Molecular target: P2X4 (Homo sapiens)
Sequence (Q99571 1-388): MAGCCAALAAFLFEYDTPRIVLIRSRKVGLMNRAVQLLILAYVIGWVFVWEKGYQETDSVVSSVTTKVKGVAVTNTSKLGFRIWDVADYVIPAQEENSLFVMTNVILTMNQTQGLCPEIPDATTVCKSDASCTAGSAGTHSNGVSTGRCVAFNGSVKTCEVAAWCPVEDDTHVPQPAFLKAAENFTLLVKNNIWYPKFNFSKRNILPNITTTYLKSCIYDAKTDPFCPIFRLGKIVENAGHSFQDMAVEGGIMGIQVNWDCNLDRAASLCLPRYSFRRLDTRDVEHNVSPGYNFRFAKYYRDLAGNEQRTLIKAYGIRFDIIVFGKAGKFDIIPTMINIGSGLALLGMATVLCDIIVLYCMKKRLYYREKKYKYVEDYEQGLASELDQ
Test: Assay A: human P2X4 receptor cell line, FLIPR calcium assay (Fluo-8, agonist Bz-ATP at EC80)
Format: cell-based
Parameters: host or cells: HEK 293 (recombinant, constitutively expressing; with mitochondrial photina in Assay B)
Conditions: HEK human P2X4 cells, Fluo-8 FLIPR, Bz-ATP at EC80; average values
quantity_kind: IC50 (µM)

- compound: "NS(=O)(=O)c1cc(NC(=O)Cc2cc(F)ccc2Cl)ccc1Oc1cccc(Cl)c1"
  experimental_system: "P2X4 (Homo sapiens)"
  value_units: "µM"
  IC50: 0.168
- compound: "NS(=O)(=O)c1cc(NC(=O)Cc2ccccc2Cl)ccc1Oc1cccc(N2CCOC2=O)c1"
  experimental_system: "P2X4 (Homo sapiens)"
  value_units: "µM"
  IC50: 0.02
- compound: "NS(=O)(=O)c1cc(NC(=O)Cc2ccccc2)cnc1Oc1cccc(C(F)(F)F)c1"
  experimental_system: "P2X4 (Homo sapiens)"
  value_units: "µM"
  IC50: 0.274
- compound: "NS(=O)(=O)c1cc(NC(=O)Cc2ccccc2)ccc1Oc1ccc(Cl)cc1"
  experimental_system: "P2X4 (Homo sapiens)"
  value_units: "µM"
  IC50: 8.34
- compound: "N#Cc1cccc(Oc2ccc(NC(=O)Cc3ccccc3Cl)cc2S(N)(=O)=O)c1"
  experimental_system: "P2X4 (Homo sapiens)"
  value_units: "µM"
  IC50: 0.058
- compound: "NS(=O)(=O)c1cc(NC(=O)Cc2ccccc2C(F)F)cc(F)c1Oc1cccc(Cl)c1"
  experimental_system: "P2X4 (Homo sapiens)"
  value_units: "µM"
  IC50: 16
- compound: "NS(=O)(=O)c1cc(NC(=O)Cc2ccccc2Cl)ccc1Oc1cccc(F)c1"
  experimental_system: "P2X4 (Homo sapiens)"
  value_units: "µM"
  IC50: 0.041
- compound: "NS(=O)(=O)c1cc(NC(=O)Cc2ccccc2Cl)ccc1Oc1cccc(N2CCOCC2)c1"
  experimental_system: "P2X4 (Homo sapiens)"
  value_units: "µM"
  IC50: 0.021

(a) NS(=O)(=O)c1cc(NC(=O)Cc2ccccc2C(F)F)cnc1Oc1cccc(Cl)c1
(b) NS(=O)(=O)c1cc(NC(=O)Cc2ccccc2Cl)ccc1Oc1cc(Cl)ccn1
Prompt line: In the pair a and b , the larger recorded IC50 belongs to which? Respond with the label that goes with your answer.
Response line: a

----------
Catalogue of compounds with associated IC50
Biological target: P2X4 (Homo sapiens)
Experiment: Assay B: human P2X4 receptor cell line, mitochondrial photina luminescence (agonist Bz-ATP at EC50)
Type: cell-based
Set-up: host or cells: HEK 293 (recombinant, constitutively expressing; with mitochondrial photina in Assay B)
Conditions: HEK human P2X4 cell line, photina luminescence, agonist Bz-ATP at EC50, average
Description: The identification of agonists and antagonists of the P2X4 receptor from humans and […] also the quantification of the activity of the compounds of the invention was performed by use of recombinant cell lines. […] The test cell lines constitutively express the mouse or human P2X4 receptors. […] The strength of Fluo8 fluorescence signal or photina luminescence signal corresponds to the level of receptor activation. […] The resulting light signal is measured immediately in the luminometer.

Look over these answered cases.
- compound: "NS(=O)(=O)c1cc(NC(=O)Cc2ccccc2Cl)ccc1OC1CC[S+]([O-])C1 (stereo not drawn)"
  quantity_kind: "IC50"
  recorded_value: "> 16 µM"
- compound: "CN1CCCC(Oc2ccc(NC(=O)Cc3ccccc3)cc2S(N)(=O)=O)C1 (stereo not drawn)"
  quantity_kind: "IC50"
  recorded_value: "> 50 µM"

Please look at the following compound next.
Prompt line: Specify measured IC50 for NS(=O)(=O)c1cc(NC(=O)Cc2ccccc2Cl)c(Cl)cc1Oc1cccc(Cl)c1 .
Response line: > 50 µM
